molecular target: monoclonal antibody 3C10 (produced by hybridoma cell line ATCC deposit designation PTA-9638); test: FCS competition: 2 nM Alexa488-PIVKA-II (13-27) premixed with 10 nM mAb 3C10, analog peptide added, overnight; D of the tracer (high D = tracer displaced)
Sequence (VH, as listed by the source, chain 1 of 2): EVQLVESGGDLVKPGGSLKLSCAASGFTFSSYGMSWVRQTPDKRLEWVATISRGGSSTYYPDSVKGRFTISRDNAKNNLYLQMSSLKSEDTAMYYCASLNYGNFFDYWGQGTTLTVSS
Sequence (VL, as listed by the source, chain 2 of 2): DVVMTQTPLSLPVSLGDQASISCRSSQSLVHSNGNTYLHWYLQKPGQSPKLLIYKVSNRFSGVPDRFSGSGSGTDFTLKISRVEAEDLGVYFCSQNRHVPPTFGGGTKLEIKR
Bridge positions count the residues as written; N and C are the ends. Ends that are not written are not given here.
Listing of entries alongside the reported Apparent Diffusion Coefficient (D).
property: Apparent Diffusion Coefficient (D) (um^2/sec)

{"columns": ["binder", "observed.measurement"],
 "data": [
  ["LEKECYEEICVYEEA (disulfide 5-10 (inferred)) [13-27 Gla domain PIVKA Protein Z peptide]", 51],
  ["LERECIEELCNKEEA (disulfide 5-10 (inferred)) [13-27 Gla domain PIVKA Protein S peptide]", 50],
  ["LERECKEEQCSFEEA (disulfide 5-10 (inferred)) [13-27 Gla domain PIVKA Factor VII peptide]", 49]
]}
